Catalogue of compounds with associated viability, T/C
# Test system: NCI-H23 complex spheroids with HUVEC/MSC, viability
# assay_info: Anticancer human tumor NCI-H23 cell line growth inhibition [RAS];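 further: spheroids exposed to compound for 7 days; 100% = DMSO vehicle control viability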
# assay_context: second compound 0.1 µM; first compound 0.0316 µM; active compounds read low

compound | readout_unit | viability, T/C
CC(Nc1ccc2c(c1)OCCn1cc(N3C(=O)OCC3C(F)F)nc1-2)C(N)=O (stereo not drawn) + C#Cc1c(F)ccc2cc(O)cc(-c3ncc4c(N5CC6CCC(C5)N6)nc(OCC56CCCN5CC(F)C6)nc4c3F)c12 | % | 108
CC(=O)OC12COC1CC(O)C1(C)C(=O)C(O)C3=C(C)C(OC(=O)C(O)C(NC(=O)OC(C)(C)C)c4ccccc4)CC(O)(C(OC(=O)c4ccccc4)C21)C3(C)C (stereo not drawn) + C=CC(=O)N1CCN(c2nc(OCC3CCCN3C)nc3c(F)c(-c4nc(N)cc(C)c4C(F)(F)F)c(Cl)cc23)C(C)C1 | % | 12.4
Cc1nc(N2CCC3(CC2)COC(C)C3N)c(CO)nc1Sc1ccnc(N)c1Cl (stereo not drawn) + C=CC(=O)N1CCN(c2nc(OCC3CCCN3C)nc3c(F)c(-c4nc(N)cc(C)c4C(F)(F)F)c(Cl)cc23)C(C)C1 | % | 37.2
CC1(O)CCCC1n1c(=O)c(C(F)F)cc2cnc(NC3CCN(S(C)(=O)=O)CC3)nc21 (stereo not drawn) + C=CC(=O)N1CCN(c2nc(OCC3CCCN3C)nc3c(F)c(-c4nc(N)cc(C)c4C(F)(F)F)c(Cl)cc23)C(C)C1 | % | 34.6
C=CC(=O)Nc1cc(Nc2nccc(-c3cn(C)c4ccccc34)n2)c(OC)cc1N(C)CCN(C)C + C#Cc1c(F)ccc2cc(O)cc(-c3ncc4c(N5CC6CCC(C5)N6)nc(OCC56CCCN5CC(F)C6)nc4c3F)c12 | % | 95.7
CC(C)n1nc(-c2ccc3oc(N)nc3c2)c2c(N)ncnc21 + C=CC(=O)N1CCN(c2nc(OCC3CCCN3C)nc3c(F)c(-c4nc(N)cc(C)c4C(F)(F)F)c(Cl)cc23)C(C)C1 | % | 17.9
Nc1ccn(C2OC(CO)C(O)C2(F)F)c(=O)n1 (stereo not drawn) + C#Cc1c(F)ccc2cc(O)cc(-c3ncc4c(N5CC6CCC(C5)N6)nc(OCC56CCCN5CC(F)C6)nc4c3F)c12 | % | 8.54
C[C@@H](NC(=O)c1ncnc(N)c1Cl)c1ncc(C(=O)Nc2cc(C(F)(F)F)c(Cl)cn2)s1 + C=CC(=O)N1CCN(c2nc(OCC3CCCN3C)nc3c(F)c(-c4nc(N)cc(C)c4C(F)(F)F)c(Cl)cc23)C(C)C1 | % | 43.3

====

# System: NCI-H23 complex spheroids with HUVEC/MSC, viability
# assay_info: Anticancer human tumor NCI-H23 cell line growth inhibition [RAS];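 further: spheroids exposed to compound for 7 days; 100% = DMSO vehicle control viability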
# assay_context: second compound 0.0316 µM; first compound 3.16 µM; active compounds read low

compound | viability, T/C, %
CC1(O)CCCC1n1c(=O)c(C(F)F)cc2cnc(NC3CCN(S(C)(=O)=O)CC3)nc21 (stereo not given) + C#Cc1c(F)ccc2cc(O)cc(-c3ncc4c(N5CC6CCC(C5)N6)nc(OCC56CCCN5CC(F)C6)nc4c3F)c12 | 81.7
CC(C)NCC(C(=O)N1CCN(c2ncnc3c2C(C)CC3O)CC1)c1ccc(Cl)cc1 (stereo not given) + C#Cc1c(F)ccc2cc(O)cc(-c3ncc4c(N5CC6CCC(C5)N6)nc(OCC56CCCN5CC(F)C6)nc4c3F)c12 | 76
Cc1nc(N2CCC3(CC2)COC(C)C3N)c(CO)nc1Sc1ccnc(N)c1Cl (stereo not given) + C#Cc1c(F)ccc2cc(O)cc(-c3ncc4c(N5CC6CCC(C5)N6)nc(OCC56CCCN5CC(F)C6)nc4c3F)c12 | 42.8
CC(C)NCC(C(=O)N1CCN(c2ncnc3c2C(C)CC3O)CC1)c1ccc(Cl)cc1 (stereo not given) + C=CC(=O)N1CCN(c2nc(OCC3CCCN3C)nc3c(F)c(-c4nc(N)cc(C)c4C(F)(F)F)c(Cl)cc23)C(C)C1 | 24.3
CCC(CC)c1cc(NC2CCC(N)C2)n2nccc2n1 (stereo not given) + C#Cc1c(F)ccc2cc(O)cc(-c3ncc4c(N5CC6CCC(C5)N6)nc(OCC56CCCN5CC(F)C6)nc4c3F)c12 | 12.8

====

# Tested on: NCI-H23 complex spheroids with HUVEC/MSC, viability
# assay_info: Anticancer human tumor NCI-H23 cell line growth inhibition [RAS];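 further: spheroids exposed to compound for 7 days; 100% = DMSO vehicle control viability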
# assay_context: second compound 1 µM; first compound 0.316 µM; active compounds read low
# Text: RAS pathway inhibitors in Combinations in Complex Spheroids A high-throughput screen of multi-cell type tumor spheroids was designed to identify active combinations of RAS pathway inhibitors and targeted small molecules. Complex spheroids include a stromal component modeled by human endothelial cells (HUVEC) and fibroblasts modeled by human mesenchymal stem cells (MSCs). […] Compounds. […] If the clinical Cmax for an agent had not been determined, the highest concentration tested was 10 microM. […]
measured_parameter: viability, T/C (%)

compound | tested_system | measured_parameter | observed_result
C=CC(=O)Nc1cc(Nc2nccc(-c3cn(C)c4ccccc34)n2)c(OC)cc1N(C)CCN(C)C + C=CC(=O)N1CCN(c2nc(OCC3CCCN3C)nc3c(F)c(-c4nc(N)cc(C)c4C(F)(F)F)c(Cl)cc23)C(C)C1 | NCI-H23 complex spheroids with HUVEC/MSC, viability | viability, T/C | 30.9
CC(=O)OC12COC1CC(O)C1(C)C(=O)C(O)C3=C(C)C(OC(=O)C(O)C(NC(=O)OC(C)(C)C)c4ccccc4)CC(O)(C(OC(=O)c4ccccc4)C21)C3(C)C (configuration not stated) + C=CC(=O)N1CCN(c2nc(OCC3CCCN3C)nc3c(F)c(-c4nc(N)cc(C)c4C(F)(F)F)c(Cl)cc23)C(C)C1 | NCI-H23 complex spheroids with HUVEC/MSC, viability | viability, T/C | 14.4

====

# Test system: NCI-H23 complex spheroids with HUVEC/MSC, viability
# assay_info: Anticancer human tumor NCI-H23 cell line growth inhibition [RAS]; active means viability on the fitted dose curve at most 10% of control; inactive means the rest;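 further: spheroids exposed to compound for 7 days; 100% = DMSO vehicle control viability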
# assay_context: second compound 0.0316 µM; first compound 0.0949 µM
Outcomes: active, inactive

compound | label
CCc1c2c(nc3ccc(O)cc13)-c1cc3c(c(=O)n1C2)COC(=O)[C@]3(O)CC + C#Cc1c(F)ccc2cc(O)cc(-c3ncc4c(N5CC6CCC(C5)N6)nc(OCC56CCCN5CC(F)C6)nc4c3F)c12 | active
CCc1c2c(nc3ccc(O)cc13)-c1cc3c(c(=O)n1C2)COC(=O)[C@]3(O)CC + C=CC(=O)N1CCN(c2nc(OCC3CCCN3C)nc3c(F)c(-c4nc(N)cc(C)c4C(F)(F)F)c(Cl)cc23)C(C)C1 | active
CC1(C)CCC(Nc2ncc(C(F)(F)F)c(-c3c[nH]c4c(P(C)(C)=O)c(C#N)ccc34)n2)CN1 (centres undefined) + C#Cc1c(F)ccc2cc(O)cc(-c3ncc4c(N5CC6CCC(C5)N6)nc(OCC56CCCN5CC(F)C6)nc4c3F)c12 | inactive
CC1(C)CCC(Nc2ncc(C(F)(F)F)c(-c3c[nH]c4c(P(C)(C)=O)c(C#N)ccc34)n2)CN1 (centres undefined) + C=CC(=O)N1CCN(c2nc(OCC3CCCN3C)nc3c(F)c(-c4nc(N)cc(C)c4C(F)(F)F)c(Cl)cc23)C(C)C1 | inactive

====

Recorded measurements of viability, T/C, one per entry
# Test system: NCI-H23 complex spheroids with HUVEC/MSC, viability
# assay_info: Anticancer human tumor NCI-H23 cell line growth inhibition [RAS];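 further: spheroids exposed to compound for 7 days; 100% = DMSO vehicle control viability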
# assay_context: second compound 0.000949 µM; first compound 0.000949 µM; active compounds read low
# From the text: RAS pathway inhibitors in Combinations in Complex Spheroids A high-throughput screen of multi-cell type tumor spheroids was designed to identify active combinations of RAS pathway inhibitors and targeted small molecules. Complex spheroids include a stromal component modeled by human endothelial cells (HUVEC) and fibroblasts modeled by human mesenchymal stem cells (MSCs). […] Compounds. […] If the clinical Cmax for an agent had not been determined, the highest concentration tested was 10 microM. […]

molecule | viability, T/C (%)
CCc1c2c(nc3ccc(O)cc13)-c1cc3c(c(=O)n1C2)COC(=O)[C@]3(O)CC + CCn1c(-c2cccnc2C(C)OC)c2c3cc(ccc31)N1CCOC(CC(NC(=O)C(C(C)C)N(C)C(=O)C3(F)CCN(C(=O)C#CC(C)(C)N(C)C)CC3)C(=O)N3CCCC(N3)C(=O)OCC(C)(C)C2)C1 | 27.9
CC1(C)CCC(Nc2ncc(C(F)(F)F)c(-c3c[nH]c4c(P(C)(C)=O)c(C#N)ccc34)n2)CN1 (centres undefined) + CCn1c(-c2cccnc2C(C)OC)c2c3cc(ccc31)N1CCOC(CC(NC(=O)C(C(C)C)N(C)C(=O)C3(F)CCN(C(=O)C#CC(C)(C)N(C)C)CC3)C(=O)N3CCCC(N3)C(=O)OCC(C)(C)C2)C1 | 26
CC1(C)CCC(Nc2ncc(C(F)(F)F)c(-c3c[nH]c4c(P(C)(C)=O)c(C#N)ccc34)n2)CN1 (centres undefined) + CCn1c(-c2cc(N3CCN(C)CC3)cnc2C(C)OC)c2c3cc(ccc31)-c1csc(n1)CC(NC(=O)C1CC1C)C(=O)N1CCCC(N1)C(=O)OCC(C)(C)C2 | 33.9
CCc1c2c(nc3ccc(O)cc13)-c1cc3c(c(=O)n1C2)COC(=O)[C@]3(O)CC + CCn1c(-c2cc(N3CCN(C)CC3)cnc2C(C)OC)c2c3cc(ccc31)-c1csc(n1)CC(NC(=O)C1CC1C)C(=O)N1CCCC(N1)C(=O)OCC(C)(C)C2 | 40.7
